assay-overview: Tolerability in Balb/c mice, plasma chemistry markers (Example 14)
Type: in vivo
measurement-conditions: male Balb/c mice, 50 mg/kg s.c. twice a week for four weeks (8 treatments), day 27
Strand notation (5' to 3'): a small letter for the sugar, then the base; units joined by * are phosphorothioate-linked, units joined directly phosphodiester-linked; [ ] holds rarer units or linkages, { } end groups; capitals alone tell only the bases. k = constrained ethyl (cEt); [5mC] = 5-methylcytosine; d = 2'-deoxy (DNA)

substance	ALT
958622 (kG*kA*kT*dA*dT*dT*d[5mC]*d[5mC]*dG*d[5mC]*dA*dT*dT*kG*k[5mC]*k[5mC]; antisense) [compound 958622]	224 U/L
958596 (kA*kG*k[5mC]*dA*dG*dT*dT*dA*dA*dG*d[5mC]*dA*d[5mC]*kT*kT*kT; antisense) [compound 958596]	207 U/L
958739 (kA*kG*k[5mC]*dA*dA*dT*dA*dG*dA*dG*dT*dA*dA*k[5mC]*k[5mC]*kA; antisense) [compound 958739]	145 U/L

###

Test system: Yap1 mRNA
assay-overview: Dose-dependent inhibition of human Yap1 in A-431 cells (Example 8, 10,000 cells per well, RTS4814)
Assay type: cell-based
measurement-conditions: A-431 cells; Yap1 mRNA
pIC50: −log10 of the molar value. Strand notation (5' to 3'): a small letter for the sugar, then the base; units joined by * are phosphorothioate-linked, units joined directly phosphodiester-linked; [ ] holds rarer units or linkages, { } end groups; capitals alone tell only the bases. k = constrained ethyl (cEt); [5mC] = 5-methylcytosine; d = 2'-deoxy (DNA)
Recorded measurements of pIC50, one per entry
measured-metric: pIC50

substance	measured-metric	reported
1074548 (kA*kT*k[5mC]*dT*dA*d[5mC]*d[5mC]*dG*dT*dA*dT*dG*d[5mC]*k[5mC]*k[5mC]*kA; antisense) [compound 1074548]	pIC50	> 7.70
1076439 (k[5mC]*kT*kT*dA*dT*dA*dT*dG*dG*dT*dT*dT*dT*kG*kT*kG) [compound 1076439]	pIC50	> 7.70
1074676 (antisense k[5mC]*kA*kA*dA*dT*dT*dA*dT*dA*dG*dG*d[5mC]*dA*k[5mC]*kT*k[5mC]) [compound 1074676]	pIC50	> 7.70
1074679 (antisense kT*k[5mC]*kT*dT*dA*dA*dT*d[5mC]*dT*dG*dT*dG*dG*k[5mC]*kT*kA) [compound 1074679]	pIC50	> 7.70
1076183 (k[5mC]*kT*kT*d[5mC]*dT*dA*dT*dA*dA*dT*dT*dA*dG*k[5mC]*k[5mC]*kA; antisense) [compound 1076183]	pIC50	7.40
1074549 (DNA kT*kA*kT*d[5mC]*dT*dA*d[5mC]*d[5mC]*dG*dT*dA*dT*dG*k[5mC]*k[5mC]*k[5mC]; antisense) [compound 1074549]	pIC50	7.00

###

Entries and their Spleen weight
assay-overview: Tolerability in Balb/c mice, body and organ weights (Example 14)
Format: in vivo
measurement-conditions: male Balb/c mice, 50 mg/kg s.c. twice a week for four weeks (8 treatments), end of study (day 27)
Strand notation (5' to 3'): a small letter for the sugar, then the base; units joined by * are phosphorothioate-linked, units joined directly phosphodiester-linked; [ ] holds rarer units or linkages, { } end groups; capitals alone tell only the bases. k = constrained ethyl (cEt); [5mC] = 5-methylcytosine; d = 2'-deoxy (DNA)
measured-metric: Spleen weight (g)

substance	measured-metric	reported
958739 (kA*kG*k[5mC]*dA*dA*dT*dA*dG*dA*dG*dT*dA*dA*k[5mC]*k[5mC]*kA; antisense) [compound 958739]	Spleen weight	0.13
958622 (kG*kA*kT*dA*dT*dT*d[5mC]*d[5mC]*dG*d[5mC]*dA*dT*dT*kG*k[5mC]*k[5mC]; antisense) [compound 958622]	Spleen weight	0.12
958589 (kG*kT*kA*dA*dA*dG*dG*dA*dA*dG*dA*dT*d[5mC]*kT*k[5mC]*k[5mC]; antisense) [compound 958589]	Spleen weight	0.10
958497 (kA*kT*kA*dT*dG*dG*dA*dA*dA*dT*dT*dG*dT*k[5mC]*kT*k[5mC]) [compound 958497]	Spleen weight	0.11
958534 (kT*kT*k[5mC]*dA*dG*d[5mC]*dA*dT*dA*dG*dA*dA*dG*kT*kA*kG; antisense) [compound 958534]	Spleen weight	0.09
958596 (kA*kG*k[5mC]*dA*dG*dT*dT*dA*dA*dG*d[5mC]*dA*d[5mC]*kT*kT*kT; antisense) [compound 958596]	Spleen weight	0.13

###

Test system: Yap1 mRNA
assay-overview: Antisense inhibition of human Yap1 in A-431 cells by cEt gapmers, single dose (Example 2, RTS4814)
Format: cell-based
measurement-conditions: Table 25; Yap1 mRNA as percent of untreated control; 3-10-3 cEt gapmers targeting SEQ ID NO.: 1, and 2
Strand notation (5' to 3'): a small letter for the sugar, then the base; units joined by * are phosphorothioate-linked, units joined directly phosphodiester-linked; [ ] holds rarer units or linkages, { } end groups; capitals alone tell only the bases. k = constrained ethyl (cEt); [5mC] = 5-methylcytosine; d = 2'-deoxy (DNA)
measured-metric: YAP1 (% UTC)

substance	measured-metric	reported
1074955 (antisense k[5mC]*k[5mC]*k[5mC]*dG*dG*dG*dT*dT*dT*dT*dT*dG*dT*k[5mC]*kA*kT) [Compound 1074955]	YAP1 (% UTC)	93
1074923 (antisense kG*kG*kG*d[5mC]*dG*dG*dT*dA*dA*d[5mC]*dT*d[5mC]*dT*kT*k[5mC]*kT) [Compound 1074923]	YAP1 (% UTC)	73
1075179 (antisense kA*kA*kT*dT*dA*dG*d[5mC]*d[5mC]*dG*dG*dT*d[5mC]*d[5mC]*k[5mC]*kA*kG) [Compound 1075179]	YAP1 (% UTC)	107
1074251 (antisense kT*k[5mC]*kT*dG*dA*dT*d[5mC]*dG*dA*dT*dG*dT*dG*kA*kT*kT) [Compound 1074251]	YAP1 (% UTC)	7
1076299 (k[5mC]*kG*kT*dT*dA*dT*dA*dA*dA*dG*dA*d[5mC]*d[5mC]*k[5mC]*kA*kA; antisense) [Compound 1076299]	YAP1 (% UTC)	3
958499 (kA*kT*kT*dA*dG*dA*dG*dT*dA*dT*dG*dT*dG*kG*k[5mC]*kA) [Compound 958499]	YAP1 (% UTC)	1

###

System: Yap1 mRNA
assay-overview: Dose-dependent inhibition of human Yap1 in SNU-449 cells (Example 9, RTS36584)
Format: cell-based
measurement-conditions: 500.0 nM, free uptake, approximately 48 hours
Strand notation (5' to 3'): a small letter for the sugar, then the base; units joined by * are phosphorothioate-linked, units joined directly phosphodiester-linked; [ ] holds rarer units or linkages, { } end groups; capitals alone tell only the bases. e = 2'-O-(2-methoxyethyl) (MOE); k = constrained ethyl (cEt); [5mC] = 5-methylcytosine; d = 2'-deoxy (DNA); m = 2'-O-methyl
Kindly return TRUE if reported % UTC (Yap1 mRNA) is no lower than 10 % UTC; return FALSE if it is lower.

substance	classification
1197216 (kA*kA*kA*dG*dT*dG*dT*dA*dT*dG*dT*d[5mC]*dA*kG*kA*kA; antisense) [compound 1197216]	TRUE
1198960 (kA*kA*dG*dT*dG*dT*dA*dT*dG*dT*d[5mC]*kA*dG*kA*dA*kG; antisense) [compound 1198960]	FALSE
1074798 (kG*k[5mC]*kT*dT*dT*dG*dG*dA*dA*dG*dA*dT*d[5mC]*kT*kG*kA) [compound 1074798]	TRUE
1198484 (kG*k[5mC]*dA*d[5mC]*dT*dT*dT*dT*dA*d[5mC]*dA*eT*kT*eA*kG*eG) [compound 1198484]	TRUE
1200785 (kA*kT*kT*dG*dT*mC*dT*d[5mC]*dA*dT*dG*d[5mC]*d[5mC]*kT*kT*kA; antisense) [compound 1200785]	TRUE
1198614 (kT*kA*kA*dA*dG*dT*dG*dT*dA*dT*dG*dT*k[5mC]*kA*kG*eA; antisense) [compound 1198614]	FALSE

###

Test system: Yap1 mRNA
assay-overview: Dose-dependent inhibition of human Yap1 in A-431 cells (Example 7, 10,000 cells per well, RTS36584)
Format: cell-based
measurement-conditions: Table 61, 62.5 nM, free uptake, A-431 cells 10,000 cells per well, 48 hours
Strand notation (5' to 3'): a small letter for the sugar, then the base; units joined by * are phosphorothioate-linked, units joined directly phosphodiester-linked; [ ] holds rarer units or linkages, { } end groups; capitals alone tell only the bases. k = constrained ethyl (cEt); [5mC] = 5-methylcytosine; d = 2'-deoxy (DNA)

substance	Yap1 mRNA, % UTC [% UTC]
958499 (ATTAGAGTATGTGGCA; 3-10-3 cEt gapmer, further chemistry not given here) [compound 958499]	12
958659 (kG*kT*kT*dG*dT*dA*dT*dT*dA*d[5mC]*dT*d[5mC]*dT*k[5mC]*k[5mC]*kA; antisense) [compound 958659]	68
958799 (kA*kT*kT*dA*d[5mC]*dT*d[5mC]*dA*dA*dT*d[5mC]*dA*dT*kG*kG*kT; antisense) [compound 958799]	53
958454 (antisense kG*kG*kA*dA*dT*dG*dA*dG*d[5mC]*dT*d[5mC]*dG*dA*kA*k[5mC]*kA) [compound 958454]	40
958739 (kA*kG*k[5mC]*dA*dA*dT*dA*dG*dA*dG*dT*dA*dA*k[5mC]*k[5mC]*kA; antisense) [compound 958739]	46
715483 (k[5mC]*kT*k[5mC]*dT*dT*dT*dG*dG*dA*dA*dA*d[5mC]*d[5mC]*kA*kT*kT) [compound 715483]	38
